Cited source for all entries: the Human Domainome abundance scans (Beltran et al. 2025)

Let's look at some variants and their measured abundance fitness.
B1: Zinc finger homeobox protein 3, residues 2147 to 2202; numbered along this chain, Q15911 (parent)
chain: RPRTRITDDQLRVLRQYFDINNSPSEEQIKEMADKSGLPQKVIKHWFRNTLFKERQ

Variants of: B1
Experiment: abundance fitness (aPCA) (normalised: wild type 0, dead -1); higher = more abundant; growth selection in yeast, the domain comes from the species named
Conditions: Homo sapiens
Output: the number by itself.

Determine from records and report abundance fitness for RPRFRITDDQLRVLRQYFDINNSPSEEQIKEMADKSGLPQKVIKHWFRNTLFKERQ [T4F]
0.125

Determine from records and report abundance fitness for RPRTRITDDQLRVLRQYFDINNSPSEEQIKEMADKSGLCQKVIKHWFRNTLFKERQ [P39C]
-0.192
